Tested on: MCF-7 (breast adenocarcinoma)
Method description: cells
Stated conditions: selectivity index: ratio of IC50 Hek293T to IC50 MCF-7
Listed compounds paired with reported SI (MCF-7)
Measured parameter: SI (MCF-7)

Chemical structure: COc1ccc2c3ccnc(C)c3n(CCNC(=O)[c-]3cccc3)c2c1.[Fe+2].c1cc[cH-]c1
System tested: MCF-7 (breast adenocarcinoma)
Measured parameter: SI (MCF-7)
Endpoint value: >1.7
//
Chemical structure: COc1ccc2c3ccnc(C)c3n(CCNC(=O)C[c-]3cccc3)c2c1.[Fe+2].c1cc[cH-]c1
System tested: MCF-7 (breast adenocarcinoma)
Measured parameter: SI (MCF-7)
Endpoint value: 2.3
//
Chemical structure: Cc1nccc2c1[nH]c1cc(OCCNC(=O)C[c-]3cccc3)ccc12.[Fe+2].c1cc[cH-]c1
System tested: MCF-7 (breast adenocarcinoma)
Measured parameter: SI (MCF-7)
Endpoint value: 1.9

---

Reported SI (HCT116) by item:
Tested on: HCT116 (colorectal carcinoma)
Method description: MTT cytotoxicity assay, HCT116
Format: cell-based, human
Stated conditions: selectivity index: ratio of IC50 Hek293T to IC50 HCT116

Molecule: Cc1nc(CNC(=O)[c-]2cccc2)cc2c1[nH]c1ccccc12.[Fe+2].c1cc[cH-]c1
SI (HCT116): >1
//
Molecule: COc1ccc2c3ccnc(C)c3n(CCn3cc(-[c-]4cccc4)nn3)c2c1.[Fe+2].c1cc[cH-]c1
SI (HCT116): >1
//
Molecule: O=c1[nH]cc(F)c(=O)[nH]1 [Compound 5-FU, 5-fluorouracil, reference compound]
SI (HCT116): 1.6
//
Molecule: Cc1nccc2c1[nH]c1cc(OCCn3cc(-[c-]4cccc4)nn3)ccc12.[Fe+2].c1cc[cH-]c1
SI (HCT116): 0.4
//
Molecule: O=C(C[c-]1cccc1)NCc1nccc2c1[nH]c1ccccc12.[Fe+2].c1cc[cH-]c1
SI (HCT116): >1
//
Molecule: [Fe+2].c1cc[cH-]c1.c1ccc2c(c1)[nH]c1c(-c3cn(C[c-]4cccc4)nn3)nccc12
SI (HCT116): >6.6

---

System: MCF-7 (breast adenocarcinoma)
Method description: cells
Stated conditions: selectivity index: ratio of IC50 Hek293T to IC50 MCF-7

Molecule: COc1ccc2c3ccnc(C)c3n(CCn3cc(-[c-]4cccc4)nn3)c2c1.[Fe+2].c1cc[cH-]c1 [Compound 24]
System tested: MCF-7 (breast adenocarcinoma)
Value modifier: >
SI (MCF-7): 1

Molecule: Cc1nc(Cn2cc(-[c-]3cccc3)nn2)cc2c1[nH]c1ccccc12.[Fe+2].c1cc[cH-]c1 [Compound 21]
System tested: MCF-7 (breast adenocarcinoma)
Value modifier: >
SI (MCF-7): 2.8

Molecule: [Fe+2].c1cc[cH-]c1.c1ccc2c(c1)[nH]c1c(-c3cn(C[c-]4cccc4)nn3)nccc12 [Compound 25]
System tested: MCF-7 (breast adenocarcinoma)
Value modifier: >
SI (MCF-7): 1

Molecule: Cc1nc(CNC(=O)[c-]2cccc2)cc2c1[nH]c1ccccc12.[Fe+2].c1cc[cH-]c1 [Compound 31]
System tested: MCF-7 (breast adenocarcinoma)
Value modifier: >
SI (MCF-7): 2.51

Molecule: O=C(C[c-]1cccc1)NCc1nccc2c1[nH]c1ccccc12.[Fe+2].c1cc[cH-]c1 [Compound 34]
System tested: MCF-7 (breast adenocarcinoma)
Value modifier: >
SI (MCF-7): 1

Molecule: Cc1nccc2c1[nH]c1cc(OCc3cn(C[c-]4cccc4)nn3)ccc12.[Fe+2].c1cc[cH-]c1 [Compound 28]
System tested: MCF-7 (breast adenocarcinoma)
Value modifier: >
SI (MCF-7): 1

Molecule: Cc1nccc2c1[nH]c1ccc(OCc3cn(C[c-]4cccc4)nn3)cc12.[Fe+2].c1cc[cH-]c1 [Compound 27]
System tested: MCF-7 (breast adenocarcinoma)
Value modifier: =
SI (MCF-7): 6.3

Molecule: Cc1nccc2c1[nH]c1ccc(OCCn3cc(-[c-]4cccc4)nn3)cc12.[Fe+2].c1cc[cH-]c1 [Compound 22]
System tested: MCF-7 (breast adenocarcinoma)
Value modifier: =
SI (MCF-7): 1.1

Molecule: O=c1[nH]cc(F)c(=O)[nH]1 [Compound 5-FU, 5-fluorouracil, reference compound]
System tested: MCF-7 (breast adenocarcinoma)
Value modifier: =
SI (MCF-7): 0.3

Molecule: Cc1nc(CNC(=O)C[c-]2cccc2)cc2c1[nH]c1ccccc12.[Fe+2].c1cc[cH-]c1 [Compound 35]
System tested: MCF-7 (breast adenocarcinoma)
Value modifier: >
SI (MCF-7): 1.4

Molecule: [Fe+2].c1cc[cH-]c1.c1ccc2c(c1)[nH]c1c(Cn3cc(-[c-]4cccc4)nn3)nccc12 [Compound 20]
System tested: MCF-7 (breast adenocarcinoma)
Value modifier: >
SI (MCF-7): 1.3

Molecule: Cc1nc(-c2cn(C[c-]3cccc3)nn2)cc2c1[nH]c1ccccc12.[Fe+2].c1cc[cH-]c1 [Compound 26]
System tested: MCF-7 (breast adenocarcinoma)
Value modifier: =
SI (MCF-7): 12.6

Molecule: Cc1nccc2c1[nH]c1cc(OCCn3cc(-[c-]4cccc4)nn3)ccc12.[Fe+2].c1cc[cH-]c1 [Compound 23]
System tested: MCF-7 (breast adenocarcinoma)
Value modifier: =
SI (MCF-7): 2.1

Molecule: Cc1nccc2c1[nH]c1cc(OCCNC(=O)[c-]3cccc3)ccc12.[Fe+2].c1cc[cH-]c1 [Compound 32]
System tested: MCF-7 (breast adenocarcinoma)
Value modifier: =
SI (MCF-7): 2

Molecule: O=C(NCc1nccc2c1[nH]c1ccccc12)[c-]1cccc1.[Fe+2].c1cc[cH-]c1 [Compound 30]
System tested: MCF-7 (breast adenocarcinoma)
Value modifier: >
SI (MCF-7): 5.9
